Measured TGI of individual entries
System: DU-145 prostate
Test: NCI tumour cell line growth inhibition, 48 h

Compound	Tested System	TGI
COc1nc(N)nc2c1ncn2C1CC(O)C(CO)O1 (stereo unspecified)	DU-145 prostate	> 100 µM

# TGI of CCOC(=O)c1c(N)sc2c1CC(C)CC2 (stereo unspecified) = > 100 µM

Notebook: CCOP(=O)(CC(=O)C1CC1)OCC , TGI read as > 100 µM

Data point: COc1ccc(C2SCC(=O)N2c2ccc(-n3c(-c4ccccc4)nc4ccccc4c3=O)cc2)cc1 (stereo unspecified) ; TGI = > 100 µM

get_value(item= CC(NC1=NCCO1)c1ccccc1Cl (stereo unspecified) , readout=TGI) returns > 100 µM

TGI measured on CCOC(=O)C(=Cc1ccc(C#N)cc1)C(=O)OCC = 10.3 µM

Value of TGI reported for the compound COc1ccc2[nH]cc(CCNC(=O)[C@H](Cc3ccc(O)cc3)NC(=O)[C@@H](NCC(F)(F)F)C(C)C)c2c1 is > 100 µM

Sure, the documented TGI for CSc1ccc(C2=NN(C(C)=O)C(c3ccc(-c4cc(Cl)c(Cl)cc4Cl)o3)C2)cc1 (stereo unspecified) is 29 µM

The reported value for FC1(F)ON2CCc3ccccc3C2[C@H]1c1ccccc1 (stereo partly specified) in terms of TGI is > 100 µM

Recorded result, CCCc1nn(C)c2c(=O)[nH]c(-c3cc(S(=O)(=O)N4CCN(C)CC4)ccc3OCC)nc12 , TGI: > 100 µM

Noted for Cc1c(Cn2c(C)nc3c(C(=O)O)cc(N4CCOCC4)cc32)cccc1C(F)(F)F : its TGI reads > 100 µM
